Measured IC50 by item
# Tested on: HMEC
# PROTOCOL TEXT: inhibition of TNF-alpha-induced ICAM-1 expression in the human microvascular endothelial cell line HMEC-1
# Type: functional, cell-based
Numbered stars: 1 amine (or outer) side, 2 acyl side, 3 side chain; on linkers, the order of the positions; unused ones are H or OH. Square brackets hold non-standard residues; d marks the D form. Peptide text beside a SMILES is read from it. NMeTrp(1-OMe) = CN[C@@H](Cc1cn(OC)c2ccccc12)C(=O)O; Butanoyl(2R-oxy,4-CN) = N#CCC[C@@H](O)C(=O)O; X1 = CCCC[C@@H](C)C[C@H](N[*:1])C(=O)[*:2]; NMeL = CN[C@@H](CC(C)C)C(=O)O; NMeA = CN[C@@H](C)C(=O)O
Express it in nM; write the number only.

1) CCCC[C@@H](C)C[C@@H]1NC(=O)[C@H](Cc2cn(OC)c3ccccc23)N(C)C(=O)[C@H](CC(C)C)NC(=O)[C@H](CC(C)C)N(C)C(=O)[C@H](C[C@H](C)CCCC)NC(=O)[C@@H](C)OC[C@H](C)N(C)C1=O ... 1660

Please tell me: IC50 of CCCC[C@@H](C)C[C@H]1CN(C)[C@@H](C)C(=O)N[C@H](C)C(=O)N[C@@H](C[C@H](C)CCCC)C(=O)N(C)[C@@H](CC(C)C)C(=O)N[C@@H](CC(C)C)C(=O)N(C)[C@@H](Cc2cn(OC)c3ccccc23)C(=O)N1 , system HMEC?
6920

Similarly, CCCC[C@@H](C)C[C@@H]1NC(=O)[C@H](Cc2cn(OC)c3ccccc23)N(C)C(=O)[C@H](CC(C)C)NC(=O)[C@H](CC(C)C)N(C)C(=O)[C@H](C[C@H](C)CCCC)NC(=O)[C@@H](CCC#N)OC(=O)[C@H](C)N(C)C1=O (cyclo(L[NMeTrp(1-OMe)][X1][NMeA][Butanoyl(2R-oxy,4-CN)][X1][NMeL])) ?
25

Similarly, CCCC[C@@H](C)C[C@@H]1NC(=O)[C@H](Cc2cn(OC)c3ccccc23)N(C)C(=O)[C@H](CC(C)C)NC(=O)[C@H](CC(C)C)N(C)C(=O)[C@H](C[C@H](C)CCCC)NC(=O)[C@@H](C)OC(=O)[C@H](C)N(C)C1=O ?
178
